Cited source for all entries: patent US11046672B2

Test system: MRC5 cells
assayDetails: Cell viability assay in MRC5 cells (MTT)
conditionContext: 300 nM
Response field label: string, one of label 1 (Cell viability at 300 nM (%) strictly below 90%) or label 0.

Worked examples follow.
structureString | assignedLabel
COC(=O)c1ccc2c(c1)NC(=O)/C2=C(\Nc1ccc(C(=O)NOCCN2CCNC(=O)C2)cc1)c1ccccc1 | label 0
COC(=O)c1ccc2c(c1)NC(=O)/C2=C(\Nc1ccc(C(=O)NOCCN2[C@H](C)CCC[C@@H]2C)cc1)c1ccccc1 | label 0
COC(=O)c1cc2c(cc1C)/C(=C(/Nc1ccc(C(=O)NOCCN3CCN(CCO)CC3)cc1)c1ccccc1)C(=O)N2 | label 0

A record lists COC(=O)c1ccc2c(c1)NC(=O)/C2=C(\Nc1ccc(C(=O)NOCCN2CCCCC2)cc1)c1ccccc1 . Is its Cell viability at 300 nM (%) below 90%?
label 0

A record lists COC(=O)c1cc2c(cc1C)/C(=C(/Nc1ccc(C(=O)N(C)OCCN3C[C@@H]4C[C@H]3CN4)cc1)c1ccccc1)C(=O)N2 . Is its Cell viability at 300 nM (%) below 90%?
label 0

###

assayDetails: PAMPA permeability assay
Format: in vitro ADME
conditionContext: PAMPA, pH 7, pH 7, 10 μM, 5 hr
Categories are assigned from the measured Papp at 5 h, 10 μM using these intervals: lower range (below 0.02 ×10⁻⁶ cm/s), middle range (0.02 ×10⁻⁶ cm/s to below 0.3 ×10⁻⁶ cm/s), upper range (0.3 ×10⁻⁶ cm/s or more)

Worked examples follow.
structureString | assignedLabel
COC(=O)c1cc2c(cc1C)/C(=C(/Nc1ccc(C(=O)NOCCN3CC[C@H](N(C)C)C3)cc1)c1ccccc1)C(=O)N2 | lower range
COC(=O)c1ccc2c(c1)NC(=O)/C2=C(\Nc1ccc(C(=O)N2CCN(C)CCO2)cc1)c1ccccc1 | upper range
COC(=O)c1ccc2c(c1)NC(=O)/C2=C(\Nc1ccc(C(=O)NOCCN(C)C)cc1)c1ccccc1 | middle range
COC(=O)c1cc2c(cc1C)/C(=C(/Nc1ccc(C(=O)NOCCCN3CCC(OC)CC3)cc1)c1ccccc1)C(=O)N2 | middle range
COC(=O)c1cc2c(cc1C)/C(=C(/Nc1ccc(C(=O)NOCCN3CCC(OC)CC3)cc1)c1ccccc1)C(=O)N2 | middle range
COC(=O)c1cc2c(cc1C)/C(=C(/Nc1ccc(C(=O)N(C)OCCN3C4CCC3CNC4)cc1)c1ccccc1)C(=O)N2 | middle range
COC(=O)c1cc2c(cc1C)/C(=C(/Nc1ccc(C(=O)NOCCN(C)C)cc1)c1ccccc1)C(=O)N2 | lower range

Attention now turns to another entry.
Any idea which band COC(=O)c1cc2c(cc1C)/C(=C(/Nc1ccc(C(=O)N(C)OCCN(C)CCO)cc1)c1ccccc1)C(=O)N2 is in?
upper range

###

Tested on: MRC5 cells
assayDetails: Cell viability assay in MRC5 cells (MTT)
conditionContext: 100 nM
Provide the reported Cell viability at 100 nM (%) of each item.
Numbers only, in %.

These solved cases illustrate the format of a correct answer.
structureString | Cell viability at 100 nM (%)
COC(=O)c1cc2c(cc1C)/C(=C(/Nc1ccc(C(=O)NOCCCN(C)C)cc1)c1ccccc1)C(=O)N2 | 94.9
COC(=O)c1cc2c(cc1C)/C(=C(/Nc1ccc(C(=O)N(OCCN3CCNCC3)C(C)C)cc1)c1ccccc1)C(=O)N2 | 92.5

Then this compound:
Lab note: COC(=O)c1ccc2c(c1)NC(=O)/C2=C(\Nc1ccc(C(=O)NOCCN2[C@H](C)CCC[C@@H]2C)cc1)c1ccccc1 gave Cell viability at 100 nM (%) of 103
